B1: HDV Ribozyme (parent)
chain: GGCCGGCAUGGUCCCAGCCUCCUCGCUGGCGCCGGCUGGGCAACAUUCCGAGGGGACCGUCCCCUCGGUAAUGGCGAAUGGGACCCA

Variants of: B1
Assay: self-cleavage, relative activity (ratio to wild type); higher = more cleavage; co-transcriptional
Returns satisfied if the recorded self-cleavage is greater than or equal to 0.1, and not satisfied otherwise.

>>> labelclass("C26G A42U")
"satisfied"

Q: Kindly determine if self-cleavage recorded for G29A C49A is above or exactly 0.1.
A: satisfied

Q: Kindly determine if self-cleavage recorded for C21G G28A is above or exactly 0.1.
A: not satisfied

Reference for the values: the RNAGym collection of RNA variant scans (doi:10.7554/elife.80360)
